system: HCT-116 colon; experiment: NCI tumour cell line growth inhibition, 48 h
reported-endpoint: log10 of TGI (log10 of the value in µM)
Remember, log10 of TGI, in µM.

Solved entries:
* O=c1c2ccccc2nc2n1CCc1c-2[nH]c2ccccc12 | 1.50
* C[C@H]1CCC/C=C/[C@@H]2C[C@H](OC(=O)CN(C)C)C[C@H]2[C@H](O)/C=C/C(=O)O1 | -0.13
* COc1cc2c(cc1C)NC(=O)/C2=C\c1ccc(Oc2ccccc2)cc1 | 1.25
* COc1ccc([C@@H]2[C@@H](Oc3ccccc3)C(=O)N2c2cc(OC)c(OC)c(OC)c2)cc1F | 0.39

q: # query: log10 of TGI | item O=C1C(Cl)=CC2(C=C1Cl)CCN=c1c(O)c3c(c(O)c12)=NC=N3 | system: HCT-116 colon
a: 1.83
